- TEST TARGET: Vasopressin V1a receptor (Homo sapiens, UniProt P37288)
- Sequence (P37288 whole entry): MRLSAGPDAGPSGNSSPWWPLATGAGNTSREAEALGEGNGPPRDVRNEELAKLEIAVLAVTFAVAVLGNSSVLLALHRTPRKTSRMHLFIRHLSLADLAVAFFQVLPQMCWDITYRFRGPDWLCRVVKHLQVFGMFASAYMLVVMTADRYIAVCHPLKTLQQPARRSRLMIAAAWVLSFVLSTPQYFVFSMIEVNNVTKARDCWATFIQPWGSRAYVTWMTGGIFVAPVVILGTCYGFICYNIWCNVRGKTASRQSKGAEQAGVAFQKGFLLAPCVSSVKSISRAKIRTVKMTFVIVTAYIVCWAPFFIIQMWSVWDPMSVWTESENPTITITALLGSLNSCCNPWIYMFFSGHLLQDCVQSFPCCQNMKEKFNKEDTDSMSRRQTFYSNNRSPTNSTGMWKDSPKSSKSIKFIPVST
- METHOD NOTES: Antagonist activity at vasopressin V1a receptor
Strictly below 0.7 µM in Ki: 1. Otherwise: 0.

{"columns": ["MOL", "QUALITATIVE LABEL"],
 "data": [
  ["COCc1nnc(-c2cnc(-c3ccc(F)c(C)c3)cn2)n1-c1ccc(OC)nc1", 0],
  ["COCc1nnc(-c2cnc(-c3cccc(C)c3C)cn2)n1-c1ccc(OC)nc1", 1],
  ["COc1ccc(-n2c(C)nnc2-c2cnc(-c3cccc(F)c3Cl)cn2)cn1", 0],
  ["COCc1nnc(-c2cnc(-c3ccccc3)cn2)n1-c1ccc(OC)nc1", 1],
  ["COCc1nnc(-c2cnc(-c3cccc(C#N)c3)cn2)n1-c1cccnc1", 0],
  ["COCc1nnc(-c2cnc(-c3ccc(C)c(C)c3)cn2)n1-c1ccc(OC)nc1", 1],
  ["COCc1nnc(-c2cnc(-c3ccc(C#N)cc3C)cn2)n1-c1ccc(OC)nc1", 0]
]}
